Measured values drawn from patent US10882856B2 for this set.

- Target or system: IDO1 (Homo sapiens, UniProt P14902)
- Assay name: Hela cell-based IDO1 assay
- Protocol conditions: Hela cells
pEC50: −log10 of the molar value.
Returns true if the recorded pEC50 is greater than or equal to 6, and false otherwise.

- Molecule: "O[C@H](c1c(C2CC2)ccc2cncn12)[C@H]1CC[C@H](c2ccc3ncccc3c2)CC1 (single isomer, unassigned) [Example D157a]"
  Target or system: "IDO1 (Homo sapiens, UniProt P14902)"
  Answer label: "true"
- Molecule: "O[C@H](c1c(C2CC2)ccc2cncn12)C1CCN(c2ccccc2)CC1 (single isomer, unassigned) [Example D170a]"
  Target or system: "IDO1 (Homo sapiens, UniProt P14902)"
  Answer label: "true"
- Molecule: "OC(c1c(C2CC2)ccn2cncc12)C1CCC(c2ccc(F)c(Cl)c2)CC1 (centres unmarked) [Example C132]"
  Target or system: "IDO1 (Homo sapiens, UniProt P14902)"
  Answer label: "true"
- Molecule: "OC(c1c(C2CC2)ccc2cncn12)[C@H]1CC[C@H](c2ccc(OC3CCOCC3)cc2)CC1 (single isomer, unassigned) [Example D114c]"
  Target or system: "IDO1 (Homo sapiens, UniProt P14902)"
  Answer label: "true"
- Molecule: "O[C@@H](c1c(C2CC2)ccc2cncn12)[C@H]1CC[C@H](c2ccc(Br)cc2)CC1 (single isomer, unassigned) [Example D118b]"
  Target or system: "IDO1 (Homo sapiens, UniProt P14902)"
  Answer label: "false"
- Molecule: "COc1cccc([C@H]2CC[C@H]([C@@H](O)c3c(C(C)C)ccc4cncn34)CC2)c1 (single isomer, unassigned) [Example D169b]"
  Target or system: "IDO1 (Homo sapiens, UniProt P14902)"
  Answer label: "false"
- Molecule: "OC(c1c(C2CC2)ccc2cncn12)C1CCN(c2ccc(Cl)cc2)CC1 (centres unmarked) [Example D174]"
  Target or system: "IDO1 (Homo sapiens, UniProt P14902)"
  Answer label: "true"
- Molecule: "OC(c1c(C2CC2)ccc2cncn12)C1CCN(c2ccc(Cl)c3ncccc23)CC1 (centres unmarked) [Example D178]"
  Target or system: "IDO1 (Homo sapiens, UniProt P14902)"
  Answer label: "true"
- Molecule: "O[C@H](c1c(C2CC2)ccc2cncn12)[C@H]1CC[C@H](c2ccnc3ccc(F)cc32)CC1 (single isomer, unassigned) [Example D150a]"
  Target or system: "IDO1 (Homo sapiens, UniProt P14902)"
  Answer label: "true"
- Molecule: "Cc1ccccc1C1CCC(C(O)c2c(C3CC3)ccn3cncc23)CC1 (centres unmarked) [Example C112]"
  Target or system: "IDO1 (Homo sapiens, UniProt P14902)"
  Answer label: "true"
- Molecule: "Oc1ccccc1[C@H]1CC[C@H]([C@@H](O)c2c(C3CC3)ccc3cncn23)CC1 (single isomer, unassigned) [Example D112b]"
  Target or system: "IDO1 (Homo sapiens, UniProt P14902)"
  Answer label: "false"

====

- Target or system: IDO1 (Homo sapiens, UniProt P14902)
- Assay name: Hela cell-based IDO1 assay
- Protocol conditions: Hela cells
pEC50: −log10 of the molar value.

- Compound: "OCCn1cc(-c2ccc(N3CCC(C(O)c4c(C5CC5)ccc5cncn45)CC3)cc2)cn1 (stereo not shown)"
  Target or system: "IDO1 (Homo sapiens, UniProt P14902)"
  Censor symbol: "="
  pEC50: 6.97
- Compound: "O[C@H](c1c(C2CC2)ccc2cncn12)[C@H]1CC[C@H](c2cccc(Cl)c2)CC1 (single isomer, unassigned) [Example D116a]"
  Target or system: "IDO1 (Homo sapiens, UniProt P14902)"
  Censor symbol: "="
  pEC50: 7.37
- Compound: "OC(c1c(C2CC2)ccn2cncc12)C1CCC(c2ccc(OC3COC3)cc2)CC1 (stereo not shown)"
  Target or system: "IDO1 (Homo sapiens, UniProt P14902)"
  Censor symbol: "="
  pEC50: 6.74
- Compound: "Oc1ccc(C2CCC(C(O)c3c(C4CC4)ccc4cncn34)CC2)c2ccccc12 (stereo not shown)"
  Target or system: "IDO1 (Homo sapiens, UniProt P14902)"
  Censor symbol: "="
  pEC50: 6.23
- Compound: "CN(C)C(=O)c1ccc([C@H]2CC[C@H]([C@@H](O)c3c(C4CC4)ccc4cncn34)CC2)cc1 (single isomer, unassigned) [Example D125b]"
  Target or system: "IDO1 (Homo sapiens, UniProt P14902)"
  Censor symbol: "="
  pEC50: 5.01
- Compound: "O=C(COc1ccc([C@H]2CC[C@H]([C@H](O)c3c(C4CC4)ccc4cncn34)CC2)cc1)c1ccccc1"
  Target or system: "IDO1 (Homo sapiens, UniProt P14902)"
  Censor symbol: "="
  pEC50: 6.93
- Compound: "OC(c1c(C2CC2)ccc2cncn12)[C@H]1CC[C@H](c2ccc(C(F)(F)F)nc2)CC1 (single isomer, unassigned) [Example D107b]"
  Target or system: "IDO1 (Homo sapiens, UniProt P14902)"
  Censor symbol: "<"
  pEC50: 5.00

====

- Target or system: cellular IDO1 in HeLa cells (Homo sapiens)
- Construct: endogenous in cells
- Sequence (P14902 whole entry): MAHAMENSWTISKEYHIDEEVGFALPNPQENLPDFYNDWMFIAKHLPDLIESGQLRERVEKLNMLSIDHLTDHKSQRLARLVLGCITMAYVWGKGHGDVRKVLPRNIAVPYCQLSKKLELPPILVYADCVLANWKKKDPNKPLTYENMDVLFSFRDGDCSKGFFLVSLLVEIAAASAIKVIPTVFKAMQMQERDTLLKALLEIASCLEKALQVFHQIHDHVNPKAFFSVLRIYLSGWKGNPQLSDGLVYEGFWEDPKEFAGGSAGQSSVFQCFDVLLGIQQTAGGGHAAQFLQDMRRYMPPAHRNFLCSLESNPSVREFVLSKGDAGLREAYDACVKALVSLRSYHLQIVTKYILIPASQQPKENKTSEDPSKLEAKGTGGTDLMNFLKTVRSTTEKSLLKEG
- Assay name: HeLa cell-based IDO1 Kyn (kynurenine) production assay
- Protocol conditions: IDO1 induced by IFN-γ, 48 hours, read-out: cell-based EC50 value (IDO1 expressed Hela cells)
pEC50: −log10 of the molar value.
Endpoint: pEC50

- Compound: "OC(c1c(C2CC2)ccc2cncn12)[C@H]1CC[C@H](c2ccc(Cl)cc2)CC1 (single isomer, unassigned) [Example D103c]"
  Censor symbol: "="
  Numeric result: 6.89
- Compound: "OC(c1c(C2CC2)ccc2cncn12)[C@H]1CC[C@@H](c2ccc(Cl)cc2)CC1 (single isomer, unassigned) [Example D103d]"
  Censor symbol: "<"
  Numeric result: 5.00

====

- Target or system: IDO1 (Homo sapiens, UniProt P14902)
- Assay name: IDO1 enzymatic assay
- Format: biochemical
- Set-up: His tag (N); made in house; host or cells: E. coli
- Protocol conditions: read-out: Enzyme IC50 IDO1
Reported IC50 values for a set of compounds
Endpoint: IC50 (nM)

- Compound: "Cc1ccc([C@H]2CC[C@H]([C@@H](O)c3c(C4CC4)ccn4cncc34)CC2)cc1 (single isomer, unassigned) [Example C110b]"
  Endpoint: "IC50"
  Censor symbol: ">"
  Numeric result: 10000
- Compound: "OC(c1c(C2CC2)ccc2cncn12)C1CCN(c2ccc(Cl)c3ncccc23)CC1 (stereo not drawn)"
  Endpoint: "IC50"
  Censor symbol: "="
  Numeric result: 24
- Compound: "O[C@H](c1c(C2CC2)ccc2cncn12)[C@H]1CC[C@@H](c2ccc(OC3CCOCC3)cc2)CC1 [Example D114d]"
  Endpoint: "IC50"
  Censor symbol: "="
  Numeric result: 1400
- Compound: "O[C@H](c1c(C2CC2)ccn2cncc12)[C@H]1CC[C@H](c2ccccc2C(F)(F)F)CC1 (single isomer, unassigned) [Example C116a]"
  Endpoint: "IC50"
  Censor symbol: "="
  Numeric result: 77
- Compound: "OC(c1c(C2CC2)ccc2cncn12)C1CCC(c2ccc3ccsc3c2)CC1 (stereo not drawn)"
  Endpoint: "IC50"
  Censor symbol: "="
  Numeric result: 61
- Compound: "COc1ccc(C2CCC(C(O)c3c(C4CC4)ccc4cncn34)CC2)c2ccccc12 (stereo not drawn)"
  Endpoint: "IC50"
  Censor symbol: "="
  Numeric result: 75
- Compound: "OC(c1c(C2CC2)ccn2cncc12)C1CCN(c2ccc(F)c3cccnc23)CC1 (single isomer, unassigned) [Example C155a]"
  Endpoint: "IC50"
  Censor symbol: "="
  Numeric result: 7500
- Compound: "O[C@H](c1c(C2CC2)ccc2cncn12)[C@H]1CC[C@H](c2cccc3ncccc32)CC1 (single isomer, unassigned) [Example D141a]"
  Endpoint: "IC50"
  Censor symbol: "="
  Numeric result: 15
- Compound: "O[C@@H](c1c(C2CC2)ccc2cncn12)C1CCN(c2ccccc2)CC1 (single isomer, unassigned) [Example D170b]"
  Endpoint: "IC50"
  Censor symbol: "="
  Numeric result: 8820
- Compound: "CC(C)c1ccc2cncn2c1[C@H](O)[C@H]1CC[C@H](c2cccc(F)c2)CC1 (single isomer, unassigned) [Example D167b]"
  Endpoint: "IC50"
  Censor symbol: "="
  Numeric result: 9800
- Compound: "Cc1cccc([C@H]2CC[C@H]([C@@H](O)c3c(C4CC4)ccn4cncc34)CC2)c1 (single isomer, unassigned) [Example C111b]"
  Endpoint: "IC50"
  Censor symbol: ">"
  Numeric result: 10000
- Compound: "O[C@H](c1c(C2CC2)ccc2cncn12)[C@H]1CC[C@H](c2ccnc3ccccc32)CC1 (single isomer, unassigned) [Example D140a]"
  Endpoint: "IC50"
  Censor symbol: "="
  Numeric result: 20
- Compound: "OC(c1c(C2CC2)ccc2cncn12)C1CCC(c2ccc(OC3COC3)cc2)CC1 (stereo not drawn)"
  Endpoint: "IC50"
  Censor symbol: "="
  Numeric result: 39
- Compound: "COCCOc1ccc([C@H]2CC[C@H]([C@@H](O)c3c(C4CC4)ccn4cncc34)CC2)cc1 (single isomer, unassigned) [Example C103b]"
  Endpoint: "IC50"
  Censor symbol: "="
  Numeric result: 1200
- Compound: "OC(c1c(C2CC2)ccn2cncc12)C1CCC(c2ccnc3ccccc23)CC1 (stereo not drawn)"
  Endpoint: "IC50"
  Censor symbol: "="
  Numeric result: 36
- Compound: "OC(c1c(C2CC2)ccc2cncn12)C1CCC(c2cc(F)cc(F)c2)CC1 (stereo not drawn)"
  Endpoint: "IC50"
  Censor symbol: "="
  Numeric result: 42
- Compound: "CC(C)c1ccc2cncn2c1C(O)C1CCC(c2ccc(F)cc2)CC1 (stereo not drawn)"
  Endpoint: "IC50"
  Censor symbol: "="
  Numeric result: 41
- Compound: "N#Cc1ccc([C@H]2CC[C@H]([C@H](O)c3c(C4CC4)ccc4cncn34)CC2)cc1 (single isomer, unassigned) [Example D110a]"
  Endpoint: "IC50"
  Censor symbol: "="
  Numeric result: 16
- Compound: "CC(=O)Nc1ccc([C@H]2CC[C@H]([C@H](O)c3c(C4CC4)ccc4cncn34)CC2)cc1"
  Endpoint: "IC50"
  Censor symbol: "="
  Numeric result: 12
- Compound: "CC(C)c1ccc2cncn2c1[C@H](O)[C@H]1CC[C@H](c2cccc(Cl)c2)CC1 (single isomer, unassigned) [Example D168b]"
  Endpoint: "IC50"
  Censor symbol: ">"
  Numeric result: 10000
- Compound: "O[C@@H](c1c(C2CC2)ccc2cncn12)[C@H]1CC[C@H](c2ccc3ncccc3c2)CC1 (single isomer, unassigned) [Example D157b]"
  Endpoint: "IC50"
  Censor symbol: ">"
  Numeric result: 10000
- Compound: "O[C@@H](c1c(C2CC2)ccc2cncn12)[C@H]1CC[C@H](c2ccnc3ccc(F)cc32)CC1 (single isomer, unassigned) [Example D150b]"
  Endpoint: "IC50"
  Censor symbol: "="
  Numeric result: 1400
- Compound: "OC(c1c(C2CC2)ccn2cncc12)C1CCC(c2ccnc3ccc(F)cc23)CC1 (stereo not drawn)"
  Endpoint: "IC50"
  Censor symbol: "="
  Numeric result: 39
- Compound: "OC(c1c(C2CC2)ccn2cncc12)C1CCN(c2ccc(F)cc2)CC1 (single isomer, unassigned) [Example C137b]"
  Endpoint: "IC50"
  Censor symbol: "="
  Numeric result: 4100
- Compound: "OC(c1c(C2CC2)ccc2cncn12)C1CCC(c2cc(F)c(F)cc2F)CC1 (stereo not drawn)"
  Endpoint: "IC50"
  Censor symbol: "="
  Numeric result: 26
- Compound: "Cc1ccccc1[C@H]1CC[C@H]([C@H](O)c2c(C3CC3)ccn3cncc23)CC1 (single isomer, unassigned) [Example C112a]"
  Endpoint: "IC50"
  Censor symbol: "="
  Numeric result: 40
- Compound: "OC(c1c(C2CC2)ccc2cncn12)[C@H]1CC[C@H](c2csc3ccccc32)CC1 (single isomer, unassigned) [Example D155a]"
  Endpoint: "IC50"
  Censor symbol: "="
  Numeric result: 28
